- System: UACC-257 melanoma
- Procedure Summary: NCI tumour cell line growth inhibition, 48 h

Compound: COc1ccc2c(c1)/C(=N/OC(C)=O)c1c-2cnc2ccccc12
TGI: > 100 µM

Compound: COC1CC(OC2C(C)OC(OC3C(C)OC(OC4C(C)OC(O[C@H]5CC[C@@]6(C)C(=CC[C@]7(O)[C@@H]6C[C@@H](O)[C@@]6(C)[C@]7(O)CC[C@@]6(O)C(C)=O)C5)CC4OC)CC3OC)CC2OC)OC(C)C1O (some centres undefined)
TGI: > 12.5 µM

Compound: O=C1c2cc([N+](=O)[O-])sc2C(=O)c2c([N+](=O)[O-])csc21
TGI: 1.31 µM

Compound: C(=C/c1nc2ccccc2o1)/c1ccc2c(c1)OCO2
TGI: > 100 µM
